Reported growth values follow for various compounds
tested on: NCI-H23 lung; assay: NCI-60 one-dose screen, 48 h (100 = growth as untreated, 0 = no growth, -100 = all killed); settings: 10 µM unless noted
The panel holds about 83,000 compounds, 20% with a hit somewhere; the sample as a whole holds those more often.
MEASUREMENT_KIND: growth (%)

{"COMPOUND": "Nc1nc(SCc2ccccc2Cl)c(-c2ccccc2)c(SCc2ccccc2Cl)n1", "TESTED_SYSTEM": "NCI-H23 lung", "EXPERIMENTAL_VALUE": 83.2}
{"COMPOUND": "COc1ccc(/C=C/C(=O)Nc2cccnc2Nc2ccc(F)cc2)cc1", "TESTED_SYSTEM": "NCI-H23 lung", "EXPERIMENTAL_VALUE": 93.6}
{"COMPOUND": "O=C(CSc1nc2c(n1Nc1ccccc1)-c1ccccc1SC2)Nc1nc(-c2ccc(Cl)cc2)cs1", "TESTED_SYSTEM": "NCI-H23 lung", "EXPERIMENTAL_VALUE": 53}
{"COMPOUND": "NC(=O)SCC(=O)Nc1ccccc1-c1ccccc1", "TESTED_SYSTEM": "NCI-H23 lung", "EXPERIMENTAL_VALUE": 97.2}
{"COMPOUND": "C[C@]12CC[C@@H]3c4ccc(O)cc4CC[C@H]3[C@@H]1CC[C@@H]2NS(=O)(=O)c1cccc(Br)c1", "TESTED_SYSTEM": "NCI-H23 lung", "EXPERIMENTAL_VALUE": 68.1}
{"COMPOUND": "CN(C)c1cccc2c(S(=O)(=O)N[C@H]3CC[C@H]4[C@@H]5CCc6cc(O)ccc6[C@H]5CC[C@]34C)cccc12", "TESTED_SYSTEM": "NCI-H23 lung", "EXPERIMENTAL_VALUE": 40.8}
{"COMPOUND": "CCCCCCC/C(=N\\N=C(N)N)c1ccc(O)cc1", "TESTED_SYSTEM": "NCI-H23 lung", "EXPERIMENTAL_VALUE": 57.5}
{"COMPOUND": "Cc1ccccc1NC(=O)c1cc2ccccc2cc1O", "TESTED_SYSTEM": "NCI-H23 lung", "EXPERIMENTAL_VALUE": 10.9}
{"COMPOUND": "Cc1ccc(C(C)C)cc1NC(=O)Nc1ccc([N+](=O)[O-])cc1", "TESTED_SYSTEM": "NCI-H23 lung", "EXPERIMENTAL_VALUE": -32.8}
{"COMPOUND": "Cc1ccc(C(O)C2=CC(=O)c3ccccc3C2=O)cc1 (configuration not stated)", "TESTED_SYSTEM": "NCI-H23 lung", "EXPERIMENTAL_VALUE": 89.2}
{"COMPOUND": "CN1CCN(Cc2ccc(NC(=O)c3[nH]ncc3Nc3ccnc4ccnn34)cc2)CC1", "TESTED_SYSTEM": "NCI-H23 lung", "EXPERIMENTAL_VALUE": 62.3}
{"COMPOUND": "CN(C)CCCN1c2nc3ccccc3cc2Sc2cc3ccccc3nc21", "TESTED_SYSTEM": "NCI-H23 lung", "EXPERIMENTAL_VALUE": -34.2}
{"COMPOUND": "Cc1cc(C(C)(C)c2cc(C)c(O)c(CN(C)C)c2)cc(CN(C)C)c1O", "TESTED_SYSTEM": "NCI-H23 lung", "EXPERIMENTAL_VALUE": 105}
{"COMPOUND": "NC(=O)c1ncn([C@@H]2O[C@H](CO)[C@@H](O)[C@H]2O)n1", "TESTED_SYSTEM": "NCI-H23 lung", "EXPERIMENTAL_VALUE": 99.1}
{"COMPOUND": "O=C1NCN(c2ccccc2)C12CCN(CCCC(c1ccc(F)cc1)c1ccc(F)cc1)CC2", "TESTED_SYSTEM": "NCI-H23 lung", "EXPERIMENTAL_VALUE": 72.9}
{"COMPOUND": "O=C(Cn1ccnc1)NC(c1ccccc1)c1ccccc1", "TESTED_SYSTEM": "NCI-H23 lung", "EXPERIMENTAL_VALUE": 94.8}
{"COMPOUND": "O=c1c(O)cccn1CCCNCCCN(CCCn1cccc(O)c1=O)CCCn1cccc(O)c1=O", "TESTED_SYSTEM": "NCI-H23 lung", "EXPERIMENTAL_VALUE": 97.7}
{"COMPOUND": "O=C(Nc1ccc(C2=NCCCN2)cc1)Nc1ccc(C2=NCCCN2)cc1", "TESTED_SYSTEM": "NCI-H23 lung", "EXPERIMENTAL_VALUE": 67.4}
{"COMPOUND": "CCCCSc1cc(C)nc(N)n1", "TESTED_SYSTEM": "NCI-H23 lung", "EXPERIMENTAL_VALUE": 95.9}
{"COMPOUND": "Cn1cnc([N+](=O)[O-])c1S(=O)(=O)Oc1ccc(Cl)cc1", "TESTED_SYSTEM": "NCI-H23 lung", "EXPERIMENTAL_VALUE": 96}
{"COMPOUND": "O=C1Nc2ccc(F)cc2/C1=C/c1nc(-c2ccc(F)cc2)n2ccccc12", "TESTED_SYSTEM": "NCI-H23 lung", "EXPERIMENTAL_VALUE": 104}
{"COMPOUND": "COC(=O)[C@]12CC[C@@H](C)[C@H](C)[C@@H]1C1=CC[C@@H]3[C@@]4(C)C[C@@H](OC(=O)c5ccco5)[C@H](O)[C@@](C)(CO)[C@@H]4[C@H](O)C[C@@]3(C)[C@]1(C)CC2", "TESTED_SYSTEM": "NCI-H23 lung", "EXPERIMENTAL_VALUE": -84.1}
{"COMPOUND": "COc1ccc(-c2cc(Cc3cccs3)c(=O)n(Cn3ccc4ccccc43)n2)cc1", "TESTED_SYSTEM": "NCI-H23 lung", "EXPERIMENTAL_VALUE": 105}
{"COMPOUND": "COc1ccc2nc3cc(Cl)ccc3c(N3CCN(c4ccnc(Nc5ccc(F)cc5)n4)CC3)c2c1", "TESTED_SYSTEM": "NCI-H23 lung", "EXPERIMENTAL_VALUE": 89.3}
{"COMPOUND": "O=C(OC[C@H]1O[C@H](OC(=O)c2cc(O)c(O)c(OC(=O)c3cc(O)c(O)c(O)c3)c2)[C@H](OC(=O)c2cc(O)c(O)c(OC(=O)c3cc(O)c(O)c(O)c3)c2)[C@@H](OC(=O)c2cc(O)c(O)c(OC(=O)c3cc(O)c(O)c(O)c3)c2)[C@@H]1OC(=O)c1cc(O)c(O)c(OC(=O)c2cc(O)c(O)c(O)c2)c1)c1cc(O)c(O)c(OC(=O)c2cc(O)c(O)c(O)c2)c1", "TESTED_SYSTEM": "NCI-H23 lung", "EXPERIMENTAL_VALUE": 19}
{"COMPOUND": "CSc1ncc2ncn(C3OC(CO)C(O)C3O)c2n1 (configuration not stated)", "TESTED_SYSTEM": "NCI-H23 lung", "EXPERIMENTAL_VALUE": 137}
{"COMPOUND": "COc1ccc(Cn2c(NCCCN(C)C)nc(=O)n(Cc3ccc(F)cc3)c2=O)cc1", "TESTED_SYSTEM": "NCI-H23 lung", "EXPERIMENTAL_VALUE": 103}
